Here, each record is paired with measured Phosphorylation-Inducing Activity (KIRA), concentration at midpoint data.
target: KDR receptor with a gD tag at the N-terminus, on CHO cells (UniProt P35968 20-1356); test: cell-based or functional assay
Hey, just the number and the unit after it is fine.

Please supply the value of reported Phosphorylation-Inducing Activity (KIRA), concentration at midpoint for the item LK-VRB-1s* (ligand) APMAEGGGQNHHEVVKFEDVLRRSSCHPIETLVDIFQEYPDEIEYIFKPSCVPLMRCGGCCNDEGLECVPTEESNITMQIMRIKPHQGQHIGEMSFLQHNKCECRPKKD 1 nM

Please supply the value of reported Phosphorylation-Inducing Activity (KIRA), concentration at midpoint for the item LK-VRB-3s (ligand) APMAEGGGQNHHEVVKIEDVFKRSSCHPIETLVDIFQEYPDEIEYIFKPSCVPLMRCGGCCNDEGLECVPTEESNITMQIMRIKPHQGQHIGEMSFLQHNKCECRPKKD 2 nM

Where do the numbers come from? From patent US7078382.
